- systemTested: Histone deacetylase 2 (Homo sapiens, UniProt Q92769)
- Sequence (Q92769 whole entry): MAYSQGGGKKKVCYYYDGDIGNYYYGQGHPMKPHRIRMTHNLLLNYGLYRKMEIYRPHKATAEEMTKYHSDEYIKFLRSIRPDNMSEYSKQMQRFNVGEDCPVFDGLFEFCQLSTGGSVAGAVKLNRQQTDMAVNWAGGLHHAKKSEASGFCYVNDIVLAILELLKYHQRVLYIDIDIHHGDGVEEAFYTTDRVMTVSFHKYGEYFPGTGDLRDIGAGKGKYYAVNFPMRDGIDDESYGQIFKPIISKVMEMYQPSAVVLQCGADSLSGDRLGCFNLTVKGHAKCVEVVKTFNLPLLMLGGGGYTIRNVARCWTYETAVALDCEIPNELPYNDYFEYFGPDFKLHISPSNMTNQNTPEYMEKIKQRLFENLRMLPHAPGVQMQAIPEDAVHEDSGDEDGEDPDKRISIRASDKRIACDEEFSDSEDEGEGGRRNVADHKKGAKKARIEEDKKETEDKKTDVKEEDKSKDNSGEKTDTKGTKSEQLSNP
- method: Inhibition of full length recombinant human C-terminal His-tagged HDAC2 expressed in baculovirus infected Sf9 cells using fluorogenic HDAC substrate after 30 mins by fluorescence analysis
Quick reference: log10 of IC50 of the listed items.
recordedEndpoint: log10 of IC50 (log10 of the value in µM)

>>> valueobserved("CCCc1nn(C)c2c(=O)[nH]c(-c3cc(S(=O)(=O)N4CCN(CCCC(=O)NO)CC4)ccc3OCC)nc12")
0.67
>>> valueobserved("CCCc1nn(C)c2c(=O)[nH]c(-c3cc(Oc4ccc(C(=O)NO)cc4)ccc3OCC)nc12")
0.35
>>> valueobserved("CCCc1nn(C)c2c(=O)[nH]c(-c3cc(NCC4CCN(c5ncc(C(=O)NO)cn5)CC4)ccc3OCC)nc12")
-0.15
>>> valueobserved("CCCc1nn(C)c2c(=O)[nH]c(-c3cc(S(=O)(=O)N4CCN(c5ncc(C(=O)NO)cn5)CC4)ccc3OCC)nc12")
-0.93
>>> valueobserved("CCCc1nn(C)c2c(=O)[nH]c(-c3cc(NC4CCN(c5ccc(C(=O)NO)cc5)CC4)ccc3OCC)nc12")
1.24
>>> valueobserved("CCCc1nn(C)c2c(=O)[nH]c(-c3cc(CN4CCN(c5ncc(C(=O)NO)cn5)CC4)ccc3OCC)nc12")
-1.05
>>> valueobserved("CCCc1nn(C)c2c(=O)[nH]c(-c3cc(OC4CCC(C(=O)NO)CC4)ccc3OCC)nc12 (stereo not drawn)")
0.99
>>> valueobserved("CCCc1nn(C)c2c(=O)[nH]c(-c3cc(CC4CCN(c5ccc(C(=O)NO)cn5)CC4)ccc3OCC)nc12")
0.81
>>> valueobserved("CCCc1nn(C)c2c(=O)[nH]c(-c3cc(S(=O)(=O)Nc4ccc(/C=C/C(=O)NO)cc4)ccc3OCC)nc12")
0.12

====

- systemTested: Histone deacetylase 2 (Homo sapiens, UniProt Q92769)
- method: Inhibition of full length recombinant human C-terminal His-tagged HDAC2 expressed in baculovirus infected Sf9 cells using fluorogenic HDAC substrate after 30 mins by fluorescence analysis
Reported IC50 values for the following compounds.
recordedEndpoint: IC50 (nM)

>>> valueobserved("CCCc1nn(C)c2c(=O)[nH]c(-c3cc(N4CCC5(CCN(c6ncc(C(=O)NO)cn6)CC5)C4)ccc3OCC)nc12")
1850
>>> valueobserved("CCCc1nn(C)c2c(=O)[nH]c(-c3cc(C4CC(C(=O)NO)C4)ccc3OCC)nc12 (centres undefined)")
1860
>>> valueobserved("CCCc1nn(C)c2c(=O)[nH]c(-c3cc(CC4CCN(c5ncc(C(=O)NO)cn5)CC4)ccc3OCC)nc12")
335

====

- systemTested: Protein deacetylase HDAC6 (Homo sapiens, UniProt Q9UBN7)
- Sequence (Q9UBN7 whole entry): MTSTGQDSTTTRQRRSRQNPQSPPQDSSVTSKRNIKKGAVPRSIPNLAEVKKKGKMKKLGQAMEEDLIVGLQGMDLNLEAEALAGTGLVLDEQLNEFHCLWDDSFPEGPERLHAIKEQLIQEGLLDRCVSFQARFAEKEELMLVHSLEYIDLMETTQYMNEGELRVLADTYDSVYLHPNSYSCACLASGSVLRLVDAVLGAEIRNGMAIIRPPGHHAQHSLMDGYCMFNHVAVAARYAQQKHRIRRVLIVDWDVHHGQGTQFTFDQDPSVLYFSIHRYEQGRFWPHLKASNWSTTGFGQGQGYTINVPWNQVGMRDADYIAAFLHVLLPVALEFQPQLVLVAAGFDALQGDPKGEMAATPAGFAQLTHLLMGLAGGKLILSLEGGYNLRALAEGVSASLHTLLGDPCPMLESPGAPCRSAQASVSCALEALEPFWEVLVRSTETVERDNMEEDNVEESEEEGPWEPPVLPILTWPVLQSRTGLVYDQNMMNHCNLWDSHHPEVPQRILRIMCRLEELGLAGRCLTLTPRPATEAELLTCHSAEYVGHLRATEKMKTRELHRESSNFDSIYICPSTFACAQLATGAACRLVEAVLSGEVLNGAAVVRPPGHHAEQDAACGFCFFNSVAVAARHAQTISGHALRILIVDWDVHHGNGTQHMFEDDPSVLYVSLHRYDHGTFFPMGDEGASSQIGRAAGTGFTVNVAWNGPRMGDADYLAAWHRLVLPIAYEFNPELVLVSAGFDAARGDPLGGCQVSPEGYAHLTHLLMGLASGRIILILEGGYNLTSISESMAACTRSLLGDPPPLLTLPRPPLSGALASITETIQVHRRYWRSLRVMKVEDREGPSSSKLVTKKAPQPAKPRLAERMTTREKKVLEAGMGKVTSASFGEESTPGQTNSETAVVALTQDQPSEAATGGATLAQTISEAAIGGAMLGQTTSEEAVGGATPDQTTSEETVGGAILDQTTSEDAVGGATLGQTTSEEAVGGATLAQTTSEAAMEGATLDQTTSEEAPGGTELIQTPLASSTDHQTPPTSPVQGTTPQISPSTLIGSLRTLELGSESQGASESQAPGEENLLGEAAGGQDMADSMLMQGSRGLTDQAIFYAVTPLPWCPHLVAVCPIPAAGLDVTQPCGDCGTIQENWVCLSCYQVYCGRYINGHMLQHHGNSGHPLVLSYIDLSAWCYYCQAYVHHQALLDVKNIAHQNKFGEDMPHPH
- method: Inhibition of full length recombinant human N-terminal GST tagged HDAC6 expressed in baculovirus infected Sf9 cells using fluorogenic HDAC substrate after 30 mins by fluorescence analysis
pIC50: −log10 of the molar value.
Label scheme for pIC50: lower than 6 is Not fulfilled, 6 and above is Fulfilled.

>>> cat("CCCc1nn(C)c2c(=O)[nH]c(-c3cc(S(=O)(=O)N4CCN(CCCC(=O)NO)CC4)ccc3OCC)nc12")
"Fulfilled"
>>> cat("CCCc1nn(C)c2c(=O)[nH]c(-c3cc(S(=O)(=O)NC4CCN(c5ncc(C(=O)NO)cn5)CC4)ccc3OCC)nc12")
"Fulfilled"
>>> cat("CCCc1nn(C)c2c(=O)[nH]c(-c3cc(S(=O)(=O)Nc4ccc(/C=C/C(=O)NO)cc4)ccc3OCC)nc12")
"Fulfilled"
>>> cat("CCCc1nn(C)c2c(=O)[nH]c(-c3cc(-c4ccc(C(=O)NO)o4)ccc3OCC)nc12")
"Not fulfilled"
>>> cat("CCCc1nn(C)c2c(=O)[nH]c(-c3cc(CN4CC(C(=O)NO)C4)ccc3OCC)nc12")
"Not fulfilled"
>>> cat("CCCc1nn(C)c2c(=O)[nH]c(-c3cc(Oc4ccc(C(=O)NO)cc4)ccc3OCC)nc12")
"Fulfilled"
>>> cat("CCCc1nn(C)c2c(=O)[nH]c(-c3cc(CC4CCN(c5ccc(C(=O)NO)cc5)CC4)ccc3OCC)nc12")
"Not fulfilled"
>>> cat("CCCc1nn(C)c2c(=O)[nH]c(-c3cc(N4CCCC5(CCC(C(=O)NO)CC5)C4)ccc3OCC)nc12 (configuration not stated)")
"Not fulfilled"
>>> cat("CCCc1nn(C)c2c(=O)[nH]c(-c3cc(OC4CCC(C(=O)NO)CC4)ccc3OCC)nc12 (configuration not stated)")
"Not fulfilled"
>>> cat("CCCc1nn(C)c2c(=O)[nH]c(-c3cc(NC4CCN(c5ccc(C(=O)NO)cc5)CC4)ccc3OCC)nc12")
"Not fulfilled"
>>> cat("CCCc1nn(C)c2c(=O)[nH]c(-c3cc(C(=O)NO)ccc3OCC)nc12")
"Not fulfilled"
>>> cat("CCCc1nn(C)c2c(=O)[nH]c(-c3cc(C4CCC(CC(=O)NO)CC4)ccc3OCC)nc12 (configuration not stated)")
"Not fulfilled"

====

List of CC50 at 72 h values.
- method: Cytotoxicity against human THLE2 cells assessed as reduction in cell viability after 72 hrs by ATP Vialight assay
- Type: toxicity, cell-based, THLE-2
- conditionLabel: read-out: LC50
recordedEndpoint: CC50 at 72 h (µM)

>>> valueobserved("CCCc1nn(C)c2c(=O)[nH]c(-c3cc(S(=O)(=O)N4CCN(c5ncc(C(=O)NO)cn5)CC4)ccc3OCC)nc12")
1.46
>>> valueobserved("CCCc1nn(C)c2c(=O)[nH]c(-c3cc(S(=O)(=O)Nc4ccc(/C=C/C(=O)NO)cc4)ccc3OCC)nc12")
27.4
>>> valueobserved("CCCc1nn(C)c2c(=O)[nH]c(-c3cc(S(=O)(=O)NC4CCN(c5ncc(C(=O)NO)cn5)CC4)ccc3OCC)nc12")
11.9
>>> valueobserved("CCCc1nn(C)c2c(=O)[nH]c(-c3cc(NC4CCN(c5ncc(C(=O)NO)cn5)CC4)ccc3OCC)nc12")
2.57

====

- systemTested: UniProtKB O76074
- method: Inhibition of full length recombinant human N-terminal GST-tagged PDE5A1 expressed in baculovirus infected Sf9 cells using cGMP as substrate after 30 mins by HTRF assay
pIC50: −log10 of the molar value.
recordedEndpoint: pIC50

>>> valueobserved("CCCc1nn(C)c2c(=O)[nH]c(-c3cc(NCC4CCN(c5ncc(C(=O)NO)cn5)CC4)ccc3OCC)nc12")
7.77
>>> valueobserved("CCCc1nn(C)c2c(=O)[nH]c(-c3cc(N4CCC5(CCN(c6ncc(C(=O)NO)cn6)CC5)C4)ccc3OCC)nc12")
7.13
>>> valueobserved("CCCc1nn(C)c2c(=O)[nH]c(-c3cc(C4CCC(CC(=O)NO)CC4)ccc3OCC)nc12 (centres undefined)")
7.15
>>> valueobserved("CCCc1nn(C)c2c(=O)[nH]c(-c3cc(CN4CCN(c5ncc(C(=O)NO)cn5)CC4)ccc3OCC)nc12")
8.15
>>> valueobserved("CCCc1nn(C)c2c(=O)[nH]c(-c3cc(S(=O)(=O)N4CCN(Cc5ccc(/C=C/C(=O)NO)cc5)CC4)ccc3OCC)nc12")
8.70
>>> valueobserved("CCCc1nn(C)c2c(=O)[nH]c(-c3cc(NC4CCN(c5ncc(C(=O)NO)cn5)CC4)ccc3OCC)nc12")
8.30
>>> valueobserved("CCCc1nn(C)c2c(=O)[nH]c(-c3cc(CCC(=O)NO)ccc3OCC)nc12")
7.34
>>> valueobserved("CCCc1nn(C)c2c(=O)[nH]c(-c3cc(S(=O)(=O)Nc4ccc(/C=C/C(=O)NO)cc4)ccc3OCC)nc12")
9.00
>>> valueobserved("CCCc1nn(C)c2c(=O)[nH]c(-c3cc(CC(=O)NO)ccc3OCC)nc12")
7.72
>>> valueobserved("CCCc1nn(C)c2c(=O)[nH]c(-c3cc(-c4ccc(C(=O)NO)o4)ccc3OCC)nc12")
8.30
>>> valueobserved("CCCc1nn(C)c2c(=O)[nH]c(-c3cc(N4CCC(CCC(=O)NO)CC4)ccc3OCC)nc12")
7.62
>>> valueobserved("CCCc1nn(C)c2c(=O)[nH]c(-c3cc(NC4CCN(c5ccc(C(=O)NO)cc5)CC4)ccc3OCC)nc12")
7.70
>>> valueobserved("CCCc1nn(C)c2c(=O)[nH]c(-c3cc(N4CCC(CC(=O)NO)CC4)ccc3OCC)nc12")
7.19
>>> valueobserved("CCCc1nn(C)c2c(=O)[nH]c(-c3cc(NCCC(=O)NO)ccc3OCC)nc12")
7.36
>>> valueobserved("CCCc1nn(C)c2c(=O)[nH]c(-c3cc(S(=O)(=O)N4CCN(CCCC(=O)NO)CC4)ccc3OCC)nc12")
8.70
>>> valueobserved("CCCc1nn(C)c2c(=O)[nH]c(-c3cc(NC4CCC(C(=O)NO)CC4)ccc3OCC)nc12 (centres undefined)")
7.66
>>> valueobserved("CCCc1nn(C)c2c(=O)[nH]c(-c3cc(S(=O)(=O)NC4CCN(c5ncc(C(=O)NO)cn5)CC4)ccc3OCC)nc12")
9.22
>>> valueobserved("CCCc1nn(C)c2c(=O)[nH]c(-c3cc(CC4CCN(c5ncc(C(=O)NO)cn5)CC4)ccc3OCC)nc12")
8.15
>>> valueobserved("CCCc1nn(C)c2c(=O)[nH]c(-c3cc(CN4CC(C(=O)NO)C4)ccc3OCC)nc12")
6.52
>>> valueobserved("CCCc1nn(C)c2c(=O)[nH]c(-c3cc(C4CC4C(=O)NO)ccc3OCC)nc12 (centres undefined)")
7.70
>>> valueobserved("CCCc1nn(C)c2c(=O)[nH]c(-c3cc(CC4CCN(c5ccc(C(=O)NO)cn5)CC4)ccc3OCC)nc12")
7.24
>>> valueobserved("CCCc1nn(C)c2c(=O)[nH]c(-c3cc(-c4ccc(C(=O)NO)cn4)ccc3OCC)nc12")
8.40
>>> valueobserved("CCCc1nn(C)c2c(=O)[nH]c(-c3cc(S(=O)(=O)N4CCN(c5ncc(C(=O)NO)cn5)CC4)ccc3OCC)nc12")
8.52
>>> valueobserved("CCCc1nn(C)c2c(=O)[nH]c(-c3cc(Cc4ccc(/C=C/C(=O)NO)cc4)ccc3OCC)nc12")
6.91
>>> valueobserved("CCCc1nn(C)c2c(=O)[nH]c(-c3cc(N(C)C4CCN(c5ncc(C(=O)NO)cn5)CC4)ccc3OCC)nc12")
8.00
>>> valueobserved("CCCc1nn(C)c2c(=O)[nH]c(-c3cc(CC4CCN(c5ccc(C(=O)NO)cc5)CC4)ccc3OCC)nc12")
6.92
>>> valueobserved("CCCc1nn(C)c2c(=O)[nH]c(-c3cc(-c4ccc(C(=O)NO)nc4)ccc3OCC)nc12")
8.40
>>> valueobserved("CCCc1nn(C)c2c(=O)[nH]c(-c3cc(CC4CCN(CCC(=O)NO)CC4)ccc3OCC)nc12")
7.24
>>> valueobserved("CCCc1nn(C)c2c(=O)[nH]c(-c3cc(Oc4ccc(C(=O)NO)cc4)ccc3OCC)nc12")
7.64
>>> valueobserved("CCCc1nn(C)c2c(=O)[nH]c(-c3cc(S(=O)(=O)N4CCN(CCC(=O)NO)CC4)ccc3OCC)nc12")
8.52
>>> valueobserved("CCCc1nn(C)c2c(=O)[nH]c(-c3cc(C(=O)NO)ccc3OCC)nc12")
8.30
>>> valueobserved("CCCc1nn(C)c2c(=O)[nH]c(-c3cc(N4CCCC5(CCC(C(=O)NO)CC5)C4)ccc3OCC)nc12 (centres undefined)")
7.40
>>> valueobserved("CCCc1nn(C)c2c(=O)[nH]c(-c3cc(CN4CCC(C(=O)NO)CC4)ccc3OCC)nc12")
6.68
>>> valueobserved("CCCc1nn(C)c2c(=O)[nH]c(-c3cc(S(=O)(=O)N4CCC(CCC(=O)NO)CC4)ccc3OCC)nc12")
9.30
